Molecular target: Nuclear receptor coactivator 3 (Homo sapiens) (UniProt Q9Y6Q9)
Sequence (Q9Y6Q9 whole entry, looked up): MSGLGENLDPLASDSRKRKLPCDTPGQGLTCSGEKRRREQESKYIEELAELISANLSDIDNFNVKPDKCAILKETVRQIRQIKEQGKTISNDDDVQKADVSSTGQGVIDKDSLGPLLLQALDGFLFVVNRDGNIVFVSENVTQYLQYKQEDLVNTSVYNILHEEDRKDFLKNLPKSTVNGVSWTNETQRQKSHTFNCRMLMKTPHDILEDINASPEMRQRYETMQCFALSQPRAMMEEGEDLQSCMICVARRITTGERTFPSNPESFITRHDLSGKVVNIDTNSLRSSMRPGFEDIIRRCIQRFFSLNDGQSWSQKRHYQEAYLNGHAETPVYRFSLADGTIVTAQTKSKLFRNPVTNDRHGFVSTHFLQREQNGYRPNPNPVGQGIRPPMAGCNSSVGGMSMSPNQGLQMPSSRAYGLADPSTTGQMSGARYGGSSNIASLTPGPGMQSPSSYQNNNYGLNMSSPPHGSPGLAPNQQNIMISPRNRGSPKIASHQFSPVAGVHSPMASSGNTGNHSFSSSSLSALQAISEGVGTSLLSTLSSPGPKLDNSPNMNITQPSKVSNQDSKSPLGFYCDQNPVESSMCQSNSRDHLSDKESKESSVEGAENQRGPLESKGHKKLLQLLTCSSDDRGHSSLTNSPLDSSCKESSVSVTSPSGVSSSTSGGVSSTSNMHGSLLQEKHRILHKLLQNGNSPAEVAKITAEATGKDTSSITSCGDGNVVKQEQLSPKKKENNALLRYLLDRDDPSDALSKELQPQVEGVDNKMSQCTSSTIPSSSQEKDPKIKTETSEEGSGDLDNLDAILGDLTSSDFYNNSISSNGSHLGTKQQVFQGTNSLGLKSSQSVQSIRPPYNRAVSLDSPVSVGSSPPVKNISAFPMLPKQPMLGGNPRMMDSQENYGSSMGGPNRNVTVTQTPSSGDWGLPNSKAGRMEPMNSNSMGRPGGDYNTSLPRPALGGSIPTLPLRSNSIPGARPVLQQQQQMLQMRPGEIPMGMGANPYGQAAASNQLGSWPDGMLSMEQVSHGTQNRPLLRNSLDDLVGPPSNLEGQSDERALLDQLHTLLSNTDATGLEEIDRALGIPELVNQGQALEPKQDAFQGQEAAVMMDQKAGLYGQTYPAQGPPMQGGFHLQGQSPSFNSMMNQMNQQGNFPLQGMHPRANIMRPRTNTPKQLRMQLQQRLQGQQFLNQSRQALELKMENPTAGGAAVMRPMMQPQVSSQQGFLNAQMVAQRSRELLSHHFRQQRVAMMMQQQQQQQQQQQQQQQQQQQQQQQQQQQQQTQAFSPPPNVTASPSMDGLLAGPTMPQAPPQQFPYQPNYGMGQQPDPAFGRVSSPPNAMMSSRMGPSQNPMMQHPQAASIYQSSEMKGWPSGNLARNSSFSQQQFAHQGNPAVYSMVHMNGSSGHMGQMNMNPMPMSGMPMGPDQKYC
Test: SRC3 coactivator transcriptional activity inhibitors, confirmation, cell-based, luminescence, quadruplicate (AID 588792);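 further: 0% = DMSO treated cells and 100% = gossypol at 36 µM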
Conditions: HEK293 GAL4-SRC3 luciferase reporter, at 3.6 µM, active compounds read high
Response key: y means inhibition >= 20%; n means inhibition < 20%.

Cc1ccc2occ(/C=N/NC(=O)c3ccncc3)c(=O)c2c1 :: y

Inquiry: Check if inhibition >= 20% (inclusive). Item: Cc1cccc(C2(c3cccc(C)c3)CC2C(=O)Nc2ccc([N+](=O)[O-])cc2O)c1 (configuration not stated)
Reply text: n

Inquiry: Check if inhibition >= 20% (inclusive). Item: N#C/C(C(N)=O)=C1/CCc2ccccc2N1
Reply text: y

Inquiry: Check if inhibition >= 20% (inclusive). Item: Cc1ccc(/C=C2\SC(=S)N(CCCC(=O)Nc3ccc(O)cc3)C2=O)cc1
Reply text: n

Inquiry: Check if inhibition >= 20% (inclusive). Item: Cc1cc(C)c2nc3nc(C)cc(C)c3c(N)c2c1
Reply text: y

Inquiry: Check if inhibition >= 20% (inclusive). Item: COC(=O)c1ccc2c(=O)n(CCCCCC(=O)O)c(=S)[nH]c2c1
Reply text: n

----------
Target: Nuclear receptor coactivator 2 (Homo sapiens)
Assay: SRC2 coactivator transcriptional activity inhibitors, confirmation, cell-based, luminescence, HEK293, triplicate (AID 652008);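 further: 0% = DMSO-treated cells and 100% = Gossypol at 36 µM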
Conditions: HEK293 GAL4-SRC2 luciferase reporter, at 8.9 µM
Calls of active or inactive are those of the source.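 How the source made its calls: active means mean inhibition above 46.5%, the solvent-only control mean plus 3 SD; inactive means the rest.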
Pick one and only one: t for active, f for inactive

Some solved cases for reference:
O=C1CSc2ccc(C(=O)Nc3cccc(S(=O)(=O)Nc4ccc(Br)cc4)c3)cc2N1 :: f
O=C(Nc1ccnn1C1CCN(C(=O)c2ccc(Cl)cc2)CC1)C1CC1 :: f
CC(=O)c1ccc(-n2c(C)c(C(C)=O)c3cc(O)ccc32)cc1 :: t
CC(/C=C1\SC(=O)N(CCCC(=O)O)C1=O)=C\c1ccccc1 :: t
CCCCn1c(CCl)nc2cc(S(=O)(=O)N3CCOCC3)ccc21 :: t
Cc1ccc(C(=O)NNC(=O)CCCN2C(=O)/C(=C/c3ccccc3Cl)SC2=S)cc1 :: t

Inquiry: Dear all, I need the recorded test outcome for CCOc1ccc(/C=C2\SC(=S)N(CCCC(=O)NCCCN3CCOCC3)C2=O)cc1 , thank you.
Reply text: t

Inquiry: Dear all, I need the recorded test outcome for Cc1ccc2sc(N(CCCN(C)C)C(=O)CN3C(=O)c4ccccc4C3=O)nc2c1C , thank you.
Reply text: f

Inquiry: Dear all, I need the recorded test outcome for COc1cccc(C(NC(C)=O)c2nc(-c3cccc(C#N)c3)cs2)c1 (stereo unspecified) , thank you.
Reply text: f

Inquiry: Dear all, I need the recorded test outcome for CC(C)COc1ccc(C(=S)N2CCCC2)cc1 , thank you.
Reply text: f

Inquiry: Dear all, I need the recorded test outcome for Clc1ccc(-n2ncc3c(NCCN4CCOCC4)ncnc32)cc1 , thank you.
Reply text: t

Inquiry: Dear all, I need the recorded test outcome for O=[N+]([O-])c1nn(-c2ccc3c(c2)OCCO3)n(O)c1=Nc1ccccc1 , thank you.
Reply text: t

Inquiry: Dear all, I need the recorded test outcome for CCOc1ccc(-c2cc(CCCC(=O)N3CCN(c4ccc(OC)cc4)CC3)no2)cc1 , thank you.
Reply text: f

Inquiry: Dear all, I need the recorded test outcome for Cc1ccc(C(=O)Nc2ncc([N+](=O)[O-])s2)cc1 , thank you.
Reply text: t

Inquiry: Dear all, I need the recorded test outcome for O=C(CCl)N(c1ccccc1)C1CCS(=O)(=O)C1 (stereo unspecified) , thank you.
Reply text: t

Inquiry: Dear all, I need the recorded test outcome for CCC(Cc1ccccc1)NC(=O)C1CCN(c2nn3c(=O)cc(C)nc3s2)CC1 (stereo unspecified) , thank you.
Reply text: f

Inquiry: Dear all, I need the recorded test outcome for O=C(/C=C\Nc1ccc2c(c1)OCO2)c1ccccn1 , thank you.
Reply text: t

Inquiry: Dear all, I need the recorded test outcome for CSc1nnc(NC(=O)c2nc(S(=O)(=O)Cc3cccc(C)c3)ncc2Cl)s1 , thank you.
Reply text: t

Inquiry: Dear all, I need the recorded test outcome for CC(C)c1ccccc1NC(=O)COC(=O)CCN1C(=O)/C(=C\C=C\c2ccccc2)SC1=S , thank you.
Reply text: t

Inquiry: Dear all, I need the recorded test outcome for CC(=O)OC[C@]12CC[C@H]3[C@@](C)(CC[C@H]4C(C)(C)CCC[C@]34C)[C@@H]1CC(C1=CC(=O)OC1O)O2 (stereo partly specified) , thank you.
Reply text: t

Inquiry: Dear all, I need the recorded test outcome for Cc1ccc(OCC(=O)NC(=S)Nc2ccccn2)c(Br)c1 , thank you.
Reply text: f

Inquiry: Dear all, I need the recorded test outcome for COc1ccc2c(c1)-c1c(ssc1=S)C(C)(C)N2 , thank you.
Reply text: t

Inquiry: Dear all, I need the recorded test outcome for O=C(Nc1ccc2nc3n(c(=O)c2c1)CCCCC3)c1c(F)ccc([N+](=O)[O-])c1F , thank you.
Reply text: t

Inquiry: Dear all, I need the recorded test outcome for Cc1ccc2sc(N(CCCN(C)C)C(=O)CCS(=O)(=O)c3ccccc3)nc2c1C , thank you.
Reply text: f

Inquiry: Dear all, I need the recorded test outcome for N#CCCN(C(=O)CCl)c1cccc(Cl)c1 , thank you.
Reply text: t

----------
Tested on: T-cell receptor (TCR)-CD3 interaction, human
Test: TCR-CD3 interaction inhibitors, retest, confirmation, biochemical, fluorescence, TAMRA-labeled TCR probe (AID 652036)
Conditions: TAMRA-labeled TCR probe fluorescence binding assay; at 9.4 µM; active compounds read high
This is one part of the list.
Response key: YES means inhibition >= 20%; NO means inhibition < 20%.

Some solved cases for reference:
CNC(=S)NNC(=O)c1oc2nc(-c3ccccc3)cc(-c3ccco3)c2c1N :: YES
COc1ccc(/C(=N\O)c2nccc3cc(OC)c(OC)cc23)cc1OC :: NO
Cc1cc2nc3c(=O)[nH]c(=O)nc-3n(C[C@H](O)[C@H](O)[C@H](O)CO)c2cc1C :: YES
COCCNC(=O)Nc1ccc2nc(-c3ccco3)c(-c3ccco3)nc2c1 :: YES
Cc1ccc(-c2nn(-c3ccccc3)cc2/C=C/C(=O)Nc2cccc(S(N)(=O)=O)c2)cc1 :: YES

Inquiry: Check if inhibition >= 20% (inclusive). Item: COc1ccc(NS(=O)(=O)c2cc(NC(=O)/C=C/c3cc(OC)c(OC)c(OC)c3)ccc2N2CCCCC2)cc1
Reply text: YES

Inquiry: Check if inhibition >= 20% (inclusive). Item: C=C1c2c(Cl)ccc(O)c2C(O)=C2C(=O)[C@]3(O)C(O)=C(C(N)=O)C(=O)[C@@H](N(C)C)[C@@H]3[C@@H](O)C12 (stereo not given in full)
Reply text: YES

Inquiry: Check if inhibition >= 20% (inclusive). Item: CN(NC(=O)c1ccccc1F)c1nc(C(F)(F)F)nc2ccccc12
Reply text: NO

Inquiry: Check if inhibition >= 20% (inclusive). Item: Cc1ccc(Cc2cnc(N)s2)o1
Reply text: NO

Inquiry: Check if inhibition >= 20% (inclusive). Item: O=C(N/N=C/c1ccco1)c1ccc(C(=O)N/N=C/c2ccco2)o1
Reply text: YES

Inquiry: Check if inhibition >= 20% (inclusive). Item: CCOCC(=O)NCc1ccc2c(c1)cc(C)n2C
Reply text: NO

Inquiry: Check if inhibition >= 20% (inclusive). Item: CN1c2ccc(C=O)c3c(C=O)ccc(c23)N(C)C1(C)C
Reply text: NO

Inquiry: Check if inhibition >= 20% (inclusive). Item: CCN(C(=O)Nc1cccc2ccccc12)c1ccccc1
Reply text: NO

Inquiry: Check if inhibition >= 20% (inclusive). Item: Cc1c(CC(=O)N2CCN(C(=O)C3COc4ccccc4O3)CC2)c(=O)oc2c(O)c(O)ccc12 (stereo not given)
Reply text: YES

Inquiry: Check if inhibition >= 20% (inclusive). Item: COCCCNC(=S)NNC(=O)C(O)(c1ccccc1)c1ccccc1
Reply text: NO

----------
Target: Steroidogenic factor 1 (Homo sapiens)
Assay: SF1 (NR5A1) inverse agonists, counter-screen for LRH-1 inverse agonist project, cell-based, luminescence, high throughput (AID 651614);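 further: cells cotransfected with StAR promoter reporter and SF1 expression vector; 0% = vehicle on cells with receptor and 100% = vehicle on cells lacking receptor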
Settings: cell-based SF1 luciferase reporter, at 3.6 µM, active compounds read high
Activity calls are given as the source filed them. Rule as the data show it: active = inhibition above about 44%; inactive = the rest.
property name: inhibition

Worked examples follow.
c1ccc2c(c1)C1=NCCN1c1ccccc1-2 :: 50.2% (active)
COc1ccc(-c2noc(CCCC(=O)O)n2)cc1 :: 40.1% (inactive)
O=C(CSc1nc2cccc(F)c2c(=O)n1-c1ccccc1)Nc1ccc2c(c1)CCC2 :: 57.5% (active)
Cc1ccc(C)c(-c2cc(C(=O)N/N=C/c3cccnc3)c3ccccc3n2)c1 :: 44.9% (active)
CCOC(=O)N1CCN(C(=O)CCl)CC1 :: 57.9% (active)
CC[C@@]1(O)C(=O)OCc2c1cc1n(c2=O)Cc2cc3c(N)cccc3nc2-1 :: 92% (active)

I'm hoping you can list inhibition for every compound here, please.
1. O=C(Cc1ccccc1)N/N=C/c1ccc([N+](=O)[O-])s1
2. O=C(Nc1ccccn1)c1ccc([N+](=O)[O-])o1
3. c1csc(CCNc2ncnc3sc4c(c23)CCC4)c1
4. COc1cc(C=CC(=O)c2cc(OC)c(OC)c(OC)c2)cc(OC)c1OC
5. CC(=O)Nc1ccc(SCC(=O)c2cc(C)n(-c3ccccc3F)c2C)cc1

Reply text:
1. 62.1% (active)
2. 59.1% (active)
3. 60.7% (active)
4. 76.1% (active)
5. -11.8% (inactive)

I'm hoping you can list inhibition for every compound here, please.
1. COc1ccc(CCNC(=O)CSc2nnc(CNC(=O)c3cccs3)o2)cc1OC
2. COC(=O)c1ccc(NC(=O)CN2C(=O)CNC2=O)cc1
3. Cc1ccc2ccc3cccnc3c2n1
4. Cc1ccc(S(=O)(=O)NCc2ccncc2)c(C)c1C

Reply text:
1. 50% (active)
2. 50.9% (active)
3. 54.5% (active)
4. 59.5% (active)
